assay: qHTS assay to identify small molecule antagonists of the thyroid receptor (TR) signaling pathway - cell viability counter screen (AID 743064); details: GH3.TRE-Luc viability, CellTiter-Fluor, 24 h; series mostly up to 70.3 µM; also: nearly all actives have a fitted effect of over 50% in size
Inconclusive results are not listed. Calls of active or inactive are those of the source. Calls follow the shape of the dose curve; as a rule, active = well fitted cell-killing curve with a large enough effect in the repeat runs; inconclusive = weak or mixed curves, or effect the other way; inactive = no such curve, though single readings can be large or run the other way.
Outcomes: active, inactive

molecule	qualitative.label
CS(=O)(=O)NC(=O)c1cc(Oc2ccc(C(F)(F)F)cc2Cl)ccc1[N+](=O)[O-]	inactive
ClC(Cl)(Cl)Br	inactive
C[N+](C)(C)C	inactive
CSc1nc(NC(C)C)nc(NC(C)C)n1	inactive
Nc1ncn[nH]1	inactive
C=C(C)C#N	inactive
C[N+](C)(C)CC(=O)O	inactive
CCN(CC)C(=O)C(C)Oc1cccc2ccccc12 (configuration not stated)	inactive
Clc1cccc(Cl)c1	inactive
O=[N+]([O-])c1ccc(Nc2ccccc2)cc1	active
CC(C)(C#N)N=NC(C)(C)C#N	inactive
Clc1ccc(C(Cl)(Cl)Cl)cc1	inactive
COc1ccc(CO)cc1	inactive
CC(C)CON=O	inactive
CNC(=O)CSP(=S)(OC)OC	inactive
Nc1ccc2ccccc2c1	inactive
CC(C)=CC1C(C(=O)OCc2cccc(Oc3ccccc3)c2)C1(C)C (configuration not stated)	inactive
N#Cc1cccnc1	inactive
CCCCCCCCCCCCCl	inactive
N#CC(c1ccccc1)c1ccccc1	inactive
CCOP(=S)(OCC)SCn1c(=O)oc2cc(Cl)ccc21	inactive
CC(C)(O)C#N	inactive
COP(=S)(OC)Oc1ccc(Sc2ccc(OP(=S)(OC)OC)cc2)cc1	inactive
O=[N+]([O-])/N=C1\NCCN1Cc1ccc(Cl)nc1	inactive
CCCCCCCCCc1ccc(O)cc1	active
CC(O)CN(CC(C)O)CC(C)O (configuration not stated)	inactive
[CH3][Sn]([Cl])([Cl])[Cl]	inactive
CC(C)Nc1nc(Cl)nc(NC(C)C)n1	inactive
CC1=C(C(=O)Nc2ccccc2)SCCO1	inactive
CCCCOCCOC(C)=O	inactive
Cc1cc(Cl)ccc1N=CN(C)C	inactive
NC(=O)CN1CCCC1=O	inactive
[Cl-].[Cl-].[Cl-].[Fe+3]	inactive
C[N+](C)(C)CC(=O)[O-]	inactive
CCCCOC(=O)COC(=O)c1ccccc1C(=O)OCCCC	inactive
CCNCC	inactive
ClCc1ccccn1	inactive
C=CC(Cl)CCl (configuration not stated)	inactive
Cn1c(-c2ccccc2)cc(-c2ccccc2)[n+]1C	inactive
Cl	inactive
CNC(=S)S	inactive
O=C(O)CF	inactive
O=C1Nc2ccc(Cl)cc2C(c2ccccc2)=NC1O (configuration not stated)	inactive
OCCOCCO	inactive
CCOP(=O)(OCC)OCC	inactive
CCOS(=O)(=O)OCC	inactive
COP(=S)(OC)Oc1ccc(S(=O)(=O)N(C)C)cc1	inactive
O=NN(c1ccccc1)c1ccccc1	inactive
ClC(Cl)(Cl)c1ccccc1	inactive
CC1(C)Cc2cccc(O)c2O1	inactive
O=NN1CCOCC1	inactive
Clc1ccccc1-c1nnc(-c2ccccc2Cl)nn1	inactive
